assay: DPPH antiradicals assay
Lab note: compare IC50 DPPH scavenging with 600 µg/mL, writing 1 (yes) if less and 0 (no) if equal or more.

>  <Molecule>
CCC(/C=C/C(C)C1CCC2C3CC=C4CC(O)CCC4(C)C3CCC12C)C(C)C (stereo not drawn)

>  <Class name>
1 (yes)

$$$$
>  <Molecule>
CCOc1cc(C(C)=O)c2cc(OC)ccc2c1

>  <Class name>
1 (yes)

$$$$
>  <Molecule>
CC(=O)OC1COC(=O)C1C (stereo not drawn)

>  <Class name>
1 (yes)

$$$$
>  <Molecule>
O=C1O[C@H]([C@@H](O)CO)C(O)=C1O [ascorbic acid, reference compound]

>  <Class name>
1 (yes)

$$$$
>  <Molecule>
COC(=O)c1ccc(O)c(OC)c1 [Ph-4, methyl 4-hydroxy-3-methoxybenzoate]

>  <Class name>
0 (no)

$$$$

Okay, now this molecule:
Does this molecule meet the criterion IC50 DPPH scavenging < 600 µg/mL? COc1cc(/C=C/c2ccccc2)oc(=O)c1 [Ph-6, (E)-4-methoxy-6-styryl-2H-pyran-2-one]
0 (no)
